Reported growth inhibition values follow for various compounds
assayProtocol: NCI Yeast Anticancer Drug Screen. Data for the rad50 strain (AID 155);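 further: 0% = growth of vehicle-only cultures of the same strain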
particulars: S. cerevisiae rad50 strain growth inhibition, stronger effect = higher value; at 50.0 µM unless noted
The panel holds about 79,000 compounds, 15% with a hit somewhere; the sample as a whole holds those more often. Active and inactive are the calls of the source. No stated cut-off is given here; in the data, active means growth inhibition above about 70%; inactive means the rest.

A selection of reference data follows.
compound	growth inhibition
Cn1c2c(c(=O)c3ccccc31)CC(O)C(C)(C)O2 (centres undefined)	-23.6% (inactive)
O=C(O)/C=C/c1cccc(F)c1	-16.6% (inactive)
CCCCCCCCN(CCCCCCCC)CC(O)c1cc(Cl)c(Cl)c(Cl)c1 (centres undefined)	24.1% (inactive)

Given CCCCCCN1COCC(COc2ccc(Cl)cc2)OC1 (centres undefined) , state its recorded growth inhibition.
23.8% (inactive)

* * *

assayProtocol: NCI Yeast Anticancer Drug Screen. Data for the mec2-1 strain (AID 157)
particulars: S. cerevisiae mec2-1 strain, stronger effect = higher value; at 50.0 µM unless noted
Experimental: Growth inhibition of yeast strains with defined genetic alterations is measured as a screen for potential anti-cancer activity. Selected strains with alterations in DNA damage repair or cell cycle control were exposed to compounds and growth inhibition was measured relative to vehicle treated controls. The strain used in this assay is mec2-1
The panel holds about 79,000 compounds, 15% with a hit somewhere; the sample as a whole holds those more often.
growth inhibition by entry:
Supply the numeric figure in %, leaving out any unit text.

compound	experimentalValue
CN(CCO)c1ccccc1	-14.8
Cc1nccn1C(/C(=N/O)c1ccccc1)c1ccccc1 (stereo not given)	10.4
Cc1ccc(C)c(NC(=O)Nc2ccccc2)c1	4.25
COc1ccc(C=C(C(=O)O)C(=O)O)cc1	-11.6
CC1(C)OCC(N)[C@@H](O)CO1 (stereo not given in full)	12.9

Item under review: Oc1ccccc1/C=N/N1C(=S)N(C23CC4CC(CC(C4)C2)C3)C(=Nc2ccccc2)C1=Nc1ccccc1 . Reported growth inhibition?
-16.2

Param item = O=c1[nH]nc(-c2ccccc2)nc1/C(=N\Nc1ccccc1)c1ccccc1 ; retrieve measured growth inhibition.
-12.3

Which growth inhibition value belongs to Cc1ccc(S(=O)(=O)Oc2ccc3oc4cccc(NCCN(C)C)c4c(=O)c3c2)cc1 ?
-13.7

Sample O=C1C=CC=C/C1=C1/SC(c2ccccc2)=C(O)N1c1ccccc1 — what was its growth inhibition?
-8.2

I am curious: what growth inhibition value has been reported for CCS(=O)(=O)CC(O)CS(=O)(=O)CC ?
-6.35

Looking for the measured growth inhibition of Oc1cc2c(cc1C(Nc1ncccn1)c1ccc3c(c1)OCO3)OCO2 (stereo not given) , can you help?
6.8

Look up growth inhibition: CN(C)C(=S)/N=c1\ssc(=S)n1Cc1cccnc1
-14.4

Which growth inhibition is reported for this compound? CC(C)CC(=O)/C=C\c1ccco1
-33.5

* * *

Items are presented alongside their recorded growth inhibition.
assayProtocol: NCI Yeast Anticancer Drug Screen. Data for the mlh1 rad18 strain (AID 175)
particulars: S. cerevisiae mlh1 rad18 strain growth inhibition, stronger effect = higher value; at 50.0 µM unless noted
Compounds without any hit were thinned out: in the full panel of roughly 79,000, 15% have a hit.
# output: bare number, implied unit %

Solved entries (count: 6):
compound	quantityUnit	growth inhibition
Cc1nc(Nc2cccc(Cl)c2)c2cnn(-c3ccc(Cl)cc3)c2n1	%	-4.35
CCCCCCCCCCCCN1CCCC(O)C1 (stereo not drawn)	%	78.1
COCCOC(=O)COc1ccccc1	%	-1.15
O=C(Nc1nccs1)c1ccccc1F	%	-3.15
COc1cc(C(C)=O)ccc1OCOc1ccc(C(C)=O)cc1OC	%	-5.55
N#Cc1ccc2c(c1)-c1cc(C#N)ccc1C2c1ccccc1	%	-6.95

Okay, now this compound:
So what's the measured growth inhibition for this one? O=C(Nc1ccc(S(=O)(=O)NC2CCCCC2)cc1)Oc1ccccc1C(=O)O
32.1

* * *

assayProtocol: NCI Yeast Anticancer Drug Screen. Data for the mlh1 rad18 strain (AID 175)
particulars: S. cerevisiae mlh1 rad18 strain growth inhibition, stronger effect = higher value; at 50.0 µM unless noted
Compounds without any hit were thinned out: in the full panel of roughly 79,000, 15% have a hit. Calls of active or inactive are those of the source. No stated cut-off is given here; in the data, active means growth inhibition above about 70%; inactive means the rest.
measuredMetric: growth inhibition

Some molecules with known growth inhibition results, for comparison:
molecule	growth inhibition
CC1(C)CC[C@]2(C(=O)O)CCC3(C)C(=CCC4[C@@]5(C)CC[C@H](OC6OCC(O)C(O)C6OC6OC(CO)C(O)C(O)C6O)C(C)(C)C5CC[C@]43C)C2C1 (some centres undefined)	87.5% (active)
Cc1cccc(C)c1NC(=O)CCc1nnc2s/c(=C\c3ccc(N(C)C)cc3)c(=O)n12	10.3% (inactive)

What measured growth inhibition goes with Cc1cn(C2CC(ON)C(CO)O2)c(=O)[nH]c1=O (centres undefined) ?
-48% (inactive)

Record request: growth inhibition value, item O=C1CC(c2ccccc2)N1c1ccccc1 (centres undefined)
-22.8% (inactive)

Endpoint output: growth inhibition of OCCNc1cccc2ccccc12 . Value?
37.4% (inactive)

Sample CC1(C)CNC[C@]2(C)OCCCO[C@@]3(C)CNCC(C)(C)NC(=O)[C@](C)(CNCC(C)(C)NC3=O)OCCCO[C@](C)(CNCC(C)(C)NC2=O)C(=O)N1 — what was its growth inhibition?
-46.2% (inactive)

Fill blank: measured growth inhibition of the molecule COC1C(OC(=O)c2ccc(C)[nH]2)C(O)C(Oc2ccc3c(O)c(NC(=O)c4c[nH]c(C(=O)Nc5c(O)c6ccc(OC7OC(C)(C)C(OC)C(OC(=O)c8ccc(C)[nH]8)C7O)c(C)c6oc5=O)c4C)c(=O)oc3c2C)OC1(C)C (centres undefined) is ____.
26.6% (inactive)

// returns reported growth inhibition for input Oc1ccc(/C=C\c2cnccn2)cc1
7.6% (inactive)

// query growth inhibition value for entry CCOP(=O)(OCC)/C(=C/n1c(=S)[nH]c2ccccc21)C(=O)OC
-22.2% (inactive)

* * *

Reported growth inhibition values for a set of compounds
assayProtocol: NCI Yeast Anticancer Drug Screen. Data for the bub3 strain (AID 167)
particulars: S. cerevisiae bub3 mutant strain, stronger effect = higher value; at 50.0 µM unless noted
This is part of a sample that, as a whole, favours compounds with a hit. Of some 79,000 tested, about 15% had one in any assay.
# output: bare number, implied unit %

Example cases with answers are listed next.
compound	quantityUnit	growth inhibition
CC(=O)OCC(C)(O)C#N (stereo not drawn)	%	-5.35
CC(C)C(C(N)=O)(C(=O)O)C(C)C	%	-5.5
CCCCCCCNC(=O)C(C)Br (stereo not drawn)	%	19.7
Cc1ccc(S(=O)(=O)N(C)CCCC#N)cc1	%	-6.6

Turning to the following compound.
Suppose we examine the compound CCOC(=O)c1c(C)[nH]c(C(=O)CCN(C)C)c1C ; what growth inhibition value has been reported?
2.1

* * *

assayProtocol: NCI Yeast Anticancer Drug Screen. Data for the rad50 strain (AID 155);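 further: 0% = growth of vehicle-only cultures of the same strain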
particulars: S. cerevisiae rad50 strain growth inhibition, stronger effect = higher value; at 50.0 µM unless noted
This is part of a sample that, as a whole, favours compounds with a hit. Of some 79,000 tested, about 15% had one in any assay.
# growth inhibition per record follows
Answer with a number only, understood to be in %.

Worked cases, answers included:
compound	measuredMetric	experimentalValue
Cc1cccc[n+]1C	growth inhibition	3.45
CCN(CC)C(=O)C1CCN(CCOc2ccccc2)CC1	growth inhibition	-14.2
O=NN1C(c2ccccc2)CNC(=O)CC1c1ccccc1 (stereo unspecified)	growth inhibition	-27
CCc1nc(N)nc(N)c1-c1ccc(NC2CCCCC2)c([N+](=O)[O-])c1	growth inhibition	10.3
CCOC(=O)C1CC1	growth inhibition	-9.65

# get_value(readout='growth inhibition', item= N#CCCN1CCCC(=O)NC1=O )
4.4

* * *

assayProtocol: NCI Yeast Anticancer Drug Screen. Data for the mec2-1 strain (AID 157)
particulars: S. cerevisiae mec2-1 strain, stronger effect = higher value; at 50.0 µM unless noted
This is part of a sample that, as a whole, favours compounds with a hit. Of some 79,000 tested, about 15% had one in any assay.
measuredMetric: growth inhibition (%)
Value expressed in %; do not type the unit.

Below, 10 molecules whose answers are already recorded.
molecule	quantityUnit	experimentalValue
CC(C)=CC(=O)O	%	-3.3
Cc1cc(=O)c2c(o1)C(=O)c1occc1C2=O	%	-34.5
[N-]=[N+]=Nc1c2c(nc3ccccc13)CCCC2	%	-10.2
COc1c2c(c(OC)c3c(=O)cc(C/C(=N/NC(=O)C[n+]4ccccc4)C(=O)Nc4cc(C)ccc4C)oc13)OCO2	%	-6.65
CN(C)Cc1cc(C(=O)/C=C/c2ccc(Cl)c(Cl)c2)cc(CN(C)C)c1O	%	-14.4
O=C(NCCCN1CCN(CCCNC(=O)Nc2ccc(N=Nc3ccccc3)cc2)CC1)Nc1ccc(N=Nc2ccccc2)cc1	%	16.3
O=C1OC(=O)c2c1nc1ccccc1c2-c1ccccc1	%	-3.9
O=c1[nH]c2nc3ccccc3c(=O)n2nc1Cc1ccccc1	%	-19.6
O=C(OC(c1ccccc1)C(c1ccccc1)N1CCOCC1)c1ccc([N+](=O)[O-])cc1 (stereo not drawn)	%	8.3
CNC(=O)Nc1c(C)cccc1C	%	6.1

Please look up its growth inhibition: COc1cc(C(C)=O)ccc1OCOc1ccc(C(C)=O)cc1OC
-23.6

Could you tell me which growth inhibition is on file for Nc1cc(S(=O)(=O)O)cc2cc(S(=O)(=O)O)cc(S(=O)(=O)O)c12 ?
-51

Need growth inhibition, item CCOC(=O)CN(c1ccccc1)c1nc(=[N+](C)C)ss1
0.65
